EC50 listing for selected binders.
target: ectodomain of murine CD98hc (mouse) (UniProt P10852); test: ELISA, purified VNAR-Fc titrated on coated CD98hc
Sequence (P10852 100-526): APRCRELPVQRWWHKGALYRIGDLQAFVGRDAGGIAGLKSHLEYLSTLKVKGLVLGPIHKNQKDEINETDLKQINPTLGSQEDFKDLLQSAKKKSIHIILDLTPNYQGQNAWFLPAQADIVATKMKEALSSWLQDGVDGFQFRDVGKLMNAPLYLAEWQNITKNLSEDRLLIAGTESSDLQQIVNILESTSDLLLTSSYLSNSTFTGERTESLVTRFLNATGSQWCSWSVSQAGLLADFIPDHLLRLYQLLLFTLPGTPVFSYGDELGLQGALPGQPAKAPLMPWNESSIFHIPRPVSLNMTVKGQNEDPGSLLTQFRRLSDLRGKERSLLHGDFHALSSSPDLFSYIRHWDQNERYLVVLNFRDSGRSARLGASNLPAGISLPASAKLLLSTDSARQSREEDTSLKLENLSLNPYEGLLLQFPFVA
Please provide the amount together with its unit, number first.

Hello, please tell me recorded EC50 for this one: VNAR clone H7 fused N-terminally to human IgG1 Fc (VNAR-hFc) (Fc fusion, not shown: a dimerising Fc or GST) ARVDQTPQTITKEEGESLTINCVLRYNNPALASTSWYRKKSGSTREETISKGGRYVETVNSGSKSFSLRINDLTVEDSGTYRCNVYFFPSFLVDKLQSHDVYGDGTAVTVNA
504 nM

Hello, please tell me recorded EC50 for this one: VNAR clone F1 fused N-terminally to human IgG1 Fc (VNAR-hFc) (Fc fusion, not shown: a dimerising Fc or GST) ARVDQTPQTITKEEGESLTINCVLRVHGRALASTSWYRKKSGSTREETISKGGRYVETVNSGSKSFSLRINDLTVEDSGTYRCNVYGLSSGDIEGVKKIDVYGDGTAVTVNA
3860 nM

Hello, please tell me recorded EC50 for this one: VNAR clone H6 fused N-terminally to human IgG1 Fc (VNAR-hFc) (Fc fusion, not shown: a dimerising Fc or GST) ARVDQTPQTITKEEGESLTINCVLRTHSNALASTSWYRKKSGSTREETISKGGRYVETVNSGSKSFSLRINDLTVEDSGTYRCNVYAFLEIQPNIYHEFDVYGDGTAVTVNA
86 nM

Hello, please tell me recorded EC50 for this one: VNAR clone F12 fused N-terminally to human IgG1 Fc (VNAR-hFc) (Fc fusion, not shown: a dimerising Fc or GST) ARVDQTPQTITKEEGESLTINCVLRVHGRALASTSWYRKKSGSTREETISKGGRYVETVNSGSKSFSLRINDLTVEDSGTYRCNVYGLSFGDIEGVKKIDVYGDGTAVTVNA
72 nM

Hello, please tell me recorded EC50 for this one: VNAR clone E12 fused N-terminally to human IgG1 Fc (VNAR-hFc) (Fc fusion, not shown: a dimerising Fc or GST) ARVDQTPQTITKEEGESLTINCVLRTQDPALASTSWYRKKSGSTREETISKGGRYVETVNSGSKSFSLRINDLTVEDSGTYRCNVYFLLAPTKTKLQGIDVYGDGTAVTVNA
819 nM

Hello, please tell me recorded EC50 for this one: VNAR clone D1 fused N-terminally to human IgG1 Fc (VNAR-hFc) (Fc fusion, not shown: a dimerising Fc or GST) ARVDQTPQTITKEEGESLTINCVLRHNYSALASTSWYRKKSGSTREETISKGGRYVETVNSGSKSFSLRINDLTVEDSGTYRCNVYGISFIEEKIRYDFDVYGDGTAVTVNA
190 nM
